Below is a list of entries, each paired with its recorded pIC50 value.
assayTarget: Prostaglandin G/H synthase 2 (Mus musculus, UniProt Q05769)
methodDescription: Inhibition of COX-2-induced PGE2 production in LPS-stimulated mouse Raw 264.7 cells preincubated for 1 hr before LPS challenge measured after 24 hrs by ELISA
# pIC50 is unitless: minus log10 of the molar concentration; print number only

Sample records with pIC50:
>>> reportedmeasurement("CS(=O)(=O)c1ccc(-c2cncn2-c2ccc(F)cc2F)cc1")
5.19
>>> reportedmeasurement("CS(=O)(=O)c1ccc(-c2c(Cl)nc(Cl)n2-c2ccc(F)cc2F)cc1")
6.26

Answer with reported pIC50 of CS(=O)(=O)c1ccc(-c2cnc(Br)n2-c2ccc(F)c(F)c2)cc1 6.24

---

assayTarget: Prostaglandin G/H synthase 2 (Mus musculus) (UniProt Q05769)
Sequence (Q05769 whole entry): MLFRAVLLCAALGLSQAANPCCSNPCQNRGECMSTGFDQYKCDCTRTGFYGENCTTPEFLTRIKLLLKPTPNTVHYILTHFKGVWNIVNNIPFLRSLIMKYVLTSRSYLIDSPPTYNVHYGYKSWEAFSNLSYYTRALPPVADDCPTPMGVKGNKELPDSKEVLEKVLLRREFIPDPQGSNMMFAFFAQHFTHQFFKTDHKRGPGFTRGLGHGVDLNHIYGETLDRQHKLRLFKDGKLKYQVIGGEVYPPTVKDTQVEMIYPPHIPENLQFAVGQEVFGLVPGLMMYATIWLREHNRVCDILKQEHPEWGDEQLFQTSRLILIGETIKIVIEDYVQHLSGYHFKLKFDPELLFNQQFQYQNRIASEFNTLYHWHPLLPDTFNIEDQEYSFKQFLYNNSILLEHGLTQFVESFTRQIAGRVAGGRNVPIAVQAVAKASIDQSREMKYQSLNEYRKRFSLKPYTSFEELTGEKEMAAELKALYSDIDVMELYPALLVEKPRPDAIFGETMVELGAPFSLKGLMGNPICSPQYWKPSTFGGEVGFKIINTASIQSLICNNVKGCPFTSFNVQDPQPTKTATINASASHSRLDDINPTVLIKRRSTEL
methodDescription: Inhibition of COX-2-induced PGE2 production in LPS-stimulated mouse Raw 264.7 cells at 10 uM preincubated for 1 hr before LPS challenge measured after 24 hrs by ELISA
Could you label it class 1 if measured inhibition is 60% or higher, and class 0 otherwise?

See these solved cases before continuing.
>>> classassignment("CS(=O)(=O)c1ccc(-c2cncn2-c2ccc(F)cc2F)cc1")
"class 1"
>>> classassignment("CS(=O)(=O)c1ccc(-c2cnc(I)n2-c2ccc(F)c(F)c2)cc1")
"class 1"
>>> classassignment("CS(=O)(=O)c1ccc(-c2c(Cl)ncn2-c2ccc(F)c(F)c2)cc1")
"class 0"
>>> classassignment("CS(=O)(=O)c1ccc(-c2cnc(Cl)n2-c2ccc(F)cc2F)cc1")
"class 0"

Consider the additional compound presented here.
Has CS(=O)(=O)c1ccc(-c2c(Br)nc(Br)n2-c2ccc(F)cc2F)cc1 a recorded inhibition greater than or equal to 60%? class 0

---

Form field: logP (one value per entry).
methodDescription: Lipophilicity, log P of the compound
Format: physicochemical
testContext: octanol/water
Write no unit; give the number alone.

Previously resolved entries follow.
>>> reportedmeasurement("CS(=O)(=O)c1ccc(-c2c(Br)ncn2-c2ccc(F)c(F)c2)cc1")
3.72
>>> reportedmeasurement("CS(=O)(=O)c1ccc(-c2c(Br)nc(Br)n2-c2ccc(F)cc2F)cc1")
4.64
>>> reportedmeasurement("CS(=O)(=O)c1ccc(-c2cnc(I)n2-c2ccc(F)c(F)c2)cc1")
3.88
>>> reportedmeasurement("CS(=O)(=O)c1ccc(-c2c(Cl)nc(Cl)n2-c2ccc(F)cc2F)cc1")
3.64
>>> reportedmeasurement("CS(=O)(=O)c1ccc(-c2cnc(Br)n2-c2ccc(F)c(F)c2)cc1")
3.7

Next molecule, logP to be filled in.
Write down logP measured for item CS(=O)(=O)c1ccc(-c2c(Cl)nc(Cl)n2-c2ccc(F)c(F)c2)cc1 4.44

---

Here the recorded inhibition is given for each entry.
assayTarget: Prostaglandin G/H synthase 2 (Mus musculus) (UniProt Q05769)
methodDescription: Inhibition of COX-2-induced PGE2 production in LPS-stimulated mouse Raw 264.7 cells at 10 uM preincubated for 1 hr before LPS challenge measured after 24 hrs by ELISA
The response must be a number in % with no trailing unit.

Solved entries (count: 3):
>>> reportedmeasurement("CS(=O)(=O)c1ccc(-c2c(Cl)nc(Cl)n2-c2ccc(F)cc2F)cc1")
98
>>> reportedmeasurement("CS(=O)(=O)c1ccc(-c2c(Cl)nc(Cl)n2-c2ccc(F)c(F)c2)cc1")
81
>>> reportedmeasurement("CS(=O)(=O)c1ccc(-c2c(Br)ncn2-c2ccc(F)c(F)c2)cc1")
7

Note down inhibition recorded for CS(=O)(=O)c1ccc(-c2cnc(Br)n2-c2ccc(F)c(F)c2)cc1 99

---

Measured pKa, listed per entry.
methodDescription: Dissociation constant, pKa of the compound
Assay type: physicochemical
Enter a number only.

>>> reportedmeasurement("CS(=O)(=O)c1ccc(-c2c(Cl)nc(Cl)n2-c2ccc(F)cc2F)cc1")
1.07

Let me know recorded pKa for CS(=O)(=O)c1ccc(-c2cnc(Br)n2-c2ccc(F)c(F)c2)cc1 , thanks. 4.05

Value source: ChEMBL document CHEMBL2157885
